- Target Of Assay: GDP-bound KRAS wild-type protein (Homo sapiens, UniProt P01116)
- Sequence (P01116 whole entry): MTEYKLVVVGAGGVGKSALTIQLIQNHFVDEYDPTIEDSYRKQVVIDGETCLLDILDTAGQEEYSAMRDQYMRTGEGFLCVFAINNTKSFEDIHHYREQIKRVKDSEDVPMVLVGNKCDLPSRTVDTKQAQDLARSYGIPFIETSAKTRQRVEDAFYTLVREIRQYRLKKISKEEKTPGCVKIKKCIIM
- Protocol Notes: Binding to KRAS by surface plasmon resonance (SPR), Single Cycle Kinetics
- Condition Parameters: SPR Single Cycle Kinetics, GDP-bound KRAS wild-type protein, 1:1 binding model; read-out: KRAS KD
Where a SMILES comes first, the peptide text is derived from it. Bridges are numbered along the chain shown (N, C = ends). [ ]: non-standard residue; d: D form. The star is where a group is joined. hPhe(3-Cl-4-CF3) = N[C@@H](CCc1ccc(C(F)(F)F)c(Cl)c1)C(=O)O; NPrPhe(4-CF3) = CCCN[C@@H](Cc1ccc(C(F)(F)F)cc1)C(=O)O; NMeGly(cPent) = CN[C@H](C(=O)O)C1CCCC1; Pro(4,4-F2) = O=C(O)[C@@H]1CC(F)(F)CN1; NEtPhe = CCN[C@@H](Cc1ccccc1)C(=O)O; Hyp = O=C(O)[C@@H]1C[C@@H](O)CN1; NMeD = CN[C@@H](CC(=O)O)C(=O)O; NMeL = CN[C@@H](CC(C)C)C(=O)O; Morpholide = C1CN(*)CCO1; NMeA = CN[C@@H](C)C(=O)O; Ac5c = NC1(C(=O)O)CCCC1; Aze = O=C(O)[C@@H]1CCN1; Sar = CNCC(=O)O
This listing pairs compounds with measured pKd.
In plain terms, pKd is the concentration in mol/L turned into minus its base-10 logarithm.

Some compounds with recorded pKd:
1. CCCN1C(=O)[C@@H]2CCN2C(=O)[C@H](C)N(C)C(=O)[C@H]([C@@H](C)CC)NC(=O)[C@H](CC(C)C)N(C)C(=O)C[C@@H](C(=O)N(C)C)NC(=O)[C@H](C2CCCC2)N(C)C(=O)C2(CCCC2)NC(=O)[C@@H]2CC(F)(F)CN2C(=O)[C@H](CCc2ccc(C(F)(F)F)c(Cl)c2)NC(=O)CN(C)C(=O)[C@@H]1Cc1ccc(C(F)(F)F)cc1 [PP0381] ([NMeL]I[NMeA][Aze][NPrPhe(4-CF3)][Sar][hPhe(3-Cl-4-CF3)][Pro(4,4-F2)][Ac5c][NMeGly(cPent)]D-NMe2; lactam N-11)    9.31
2. CCO[C@@H]1C[C@H]2C(=O)NC3(CCC3)C(=O)N(C)[C@@H](C3CCCC3)C(=O)N(C)[C@H](C(=O)N3CCOCC3)CC(=O)N(C)[C@@H](CC3CCCC3)C(=O)N[C@@H]([C@@H](C)CC)C(=O)N(C)CC(=O)N(C)[C@H]3CCCCN(C3=O)[C@@H](Cc3ccc(C(F)(F)F)cc3)C(=O)N(C)CC(=O)N[C@@H](CCc3cc(F)c(C(F)(F)F)c(F)c3)C(=O)N2C1    10.46
3. CCCN1C(=O)CN(C)C(=O)[C@@H]2CCN2C(=O)[C@H]([C@@H](C)CC)NC(=O)[C@H](CC(C)C)N(C)C(=O)C[C@@H](C(=O)N(C)C)NC(=O)[C@H](C2CCCC2)N(C)C(=O)C2(CCCC2)NC(=O)[C@@H]2C[C@@H](OCC)CN2C(=O)[C@H](CCc2ccc(C(F)(F)F)c(Cl)c2)NC(=O)CN(C)C(=O)[C@@H]1Cc1ccc(C(F)(F)F)cc1 [PP0377] ([NMeL]I[Aze][Sar][NPrPhe(4-CF3)][Sar][hPhe(3-Cl-4-CF3)][Hyp](Et)[Ac5c][NMeGly(cPent)]D-NMe2; lactam N-11)    9.15
4. CCO[C@@H]1C[C@H]2C(=O)NC3(CCC3)C(=O)N(C)[C@@H](C3CCCC3)C(=O)N(C)[C@H](C(=O)N3CCOCC3)CC(=O)N(C)[C@@H](CC)C(=O)N[C@@H]([C@@H](C)CC)C(=O)N(C)CC(=O)N(C)[C@H]3CCCCCN(C3=O)[C@@H](Cc3ccc(C(F)(F)F)cc3)C(=O)N(C)CC(=O)N[C@@H](CCc3cc(F)c(C(F)(F)F)c(F)c3)C(=O)N2C1    9.33

CC[C@H](C)[C@@H]1NC(=O)[C@H](CC(C)C)N(C)C(=O)C[C@@H](C(=O)N2CCOCC2)N(C)C(=O)[C@H](C2CCCC2)N(C)C(=O)C2(CCCC2)NC(=O)[C@@H]2CCCN2C(=O)[C@H](CCc2ccc(C(F)(F)F)c(Cl)c2)NC(=O)CN(C)C(=O)[C@H](Cc2ccccc2)N(CC)C(=O)CN(C)C(=O)CN(C)C1=O [PP0210] ([NMeL]I[Sar][Sar][NEtPhe][Sar][hPhe(3-Cl-4-CF3)]P[Ac5c][NMeGly(cPent)][NMeD]-Morpholide; lactam N-11) has a reported pKd of 9.28
